# assay.system: Human O-GlcNAcase (Homo sapiens, UniProt O60502)
# Sequence (O60502 1-916): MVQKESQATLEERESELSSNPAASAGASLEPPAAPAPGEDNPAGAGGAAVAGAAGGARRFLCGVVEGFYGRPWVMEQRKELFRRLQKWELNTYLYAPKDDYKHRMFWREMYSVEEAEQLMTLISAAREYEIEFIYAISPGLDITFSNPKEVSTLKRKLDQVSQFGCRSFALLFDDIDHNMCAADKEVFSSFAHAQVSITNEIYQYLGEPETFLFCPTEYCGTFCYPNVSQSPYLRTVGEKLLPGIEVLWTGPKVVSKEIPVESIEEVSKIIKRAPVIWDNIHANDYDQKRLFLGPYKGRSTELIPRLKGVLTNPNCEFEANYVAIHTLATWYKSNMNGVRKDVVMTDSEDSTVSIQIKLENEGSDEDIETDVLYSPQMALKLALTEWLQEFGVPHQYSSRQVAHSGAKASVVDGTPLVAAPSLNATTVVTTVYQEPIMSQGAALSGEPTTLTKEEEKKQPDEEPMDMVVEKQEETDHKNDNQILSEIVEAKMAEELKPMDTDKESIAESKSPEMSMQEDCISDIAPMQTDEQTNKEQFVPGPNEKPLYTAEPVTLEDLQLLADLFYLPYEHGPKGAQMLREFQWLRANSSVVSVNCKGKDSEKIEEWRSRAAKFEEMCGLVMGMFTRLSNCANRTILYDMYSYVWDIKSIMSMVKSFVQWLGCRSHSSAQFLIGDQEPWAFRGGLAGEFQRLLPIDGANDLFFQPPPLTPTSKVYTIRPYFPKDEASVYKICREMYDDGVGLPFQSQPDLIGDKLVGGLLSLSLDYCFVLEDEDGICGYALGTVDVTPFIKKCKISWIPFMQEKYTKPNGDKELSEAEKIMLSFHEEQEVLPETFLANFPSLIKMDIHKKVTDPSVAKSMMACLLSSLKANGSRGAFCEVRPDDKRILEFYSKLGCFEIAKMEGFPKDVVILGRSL
Could you please report measured Ki for the items listed next?
Kindly format the answer as number then unit.

INPUT: Give reported Ki value for CC(=O)NC1CN(CCCCCCCN)C(CO)C(O)C1O (centres unmarked) [Compound 1]
OUTPUT: 108 µM

INPUT: Could you please provide reported Ki for CC(=O)NC1CN(CCCCCCCNC(=O)CCCCC2SCC3NC(=O)NC32)C(CO)C(O)C1O (centres unmarked) [Compound 5] ? Thanks!
OUTPUT: 145 µM

INPUT: Please report the measured Ki for COc1ccc(CN(CCCCCCCN2CC(NC(C)=O)C(O)C(O)C2CO)Cc2ccc(OC)cc2)cc1 (centres unmarked) [Compound 3]
OUTPUT: 176 µM

INPUT: Hello, please tell me recorded Ki for this one: CC(=O)NC1CN(CCCCCCCN=[N+]=[N-])C(CO)C(O)C1O (centres unmarked) [Compound 4]
OUTPUT: 155 µM

INPUT: Supply measured Ki of COc1ccc(CNCCCCCCCN2CC(NC(C)=O)C(O)C(O)C2CO)cc1 (centres unmarked) [Compound 2] in your reply.
OUTPUT: 102 µM
